# Target: recombinant human PKM2 (Homo sapiens, UniProt P14618)
# Construct: His (N); purchased R&D Systems
# Sequence (P14618 2-531 limits assumed): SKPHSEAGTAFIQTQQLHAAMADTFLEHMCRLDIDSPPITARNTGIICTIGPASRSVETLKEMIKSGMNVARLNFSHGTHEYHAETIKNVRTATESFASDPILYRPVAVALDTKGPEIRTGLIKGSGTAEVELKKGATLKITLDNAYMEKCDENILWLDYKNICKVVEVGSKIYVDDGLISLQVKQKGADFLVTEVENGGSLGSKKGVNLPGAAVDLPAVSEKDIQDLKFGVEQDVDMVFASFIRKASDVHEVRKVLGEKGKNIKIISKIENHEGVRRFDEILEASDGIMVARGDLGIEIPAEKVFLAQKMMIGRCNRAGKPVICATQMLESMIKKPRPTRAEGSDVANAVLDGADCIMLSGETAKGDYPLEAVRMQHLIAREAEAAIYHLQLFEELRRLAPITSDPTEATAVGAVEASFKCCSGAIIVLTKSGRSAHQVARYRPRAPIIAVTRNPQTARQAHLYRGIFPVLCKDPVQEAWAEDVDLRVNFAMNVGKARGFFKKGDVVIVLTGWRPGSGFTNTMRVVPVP
# Measurement protocol: Human PKM2 activation assay (Kinase-Glo Plus luminescent detection of generated ATP)
# Type: biochemical
# Condition description: percentage activation normalised to DMSO vehicle (LOW) and 5 μM TEPP-46 (HIGH); read-out: hPKM2 Emax
Endpoint label: Emax (%)
Quick reminder: number only, in %, skip the unit.

Param readout= Emax; system= recombinant human PKM2 (Homo sapiens, UniProt P14618); entry= Cn1cc(Cl)c(Cn2ncc3cc(S(=O)(=O)c4ccccc4)ccc3c2=O)n1 [Example 76] ; returns value.
101

Param readout= Emax; system= recombinant human PKM2 (Homo sapiens, UniProt P14618); entry= O=c1c2ccc(S(=O)(=O)c3ccc4c(c3)OCCO4)cc2cnn1Cc1ccn(CCO)n1 [Example 206] ; returns value.
98.7

Param readout= Emax; system= recombinant human PKM2 (Homo sapiens, UniProt P14618); entry= O=c1c2ccc(S(=O)(=O)c3cnc4c(c3)OCCO4)cc2cnn1Cc1cc[nH]n1 [Example 234] ; returns value.
91.9

Param readout= Emax; system= recombinant human PKM2 (Homo sapiens, UniProt P14618); entry= COc1cccc(Cn2ncc3cc(S(=O)(=O)c4ccccc4)ccc3c2=O)n1 [Example 37] ; returns value.
118

###

Kindly state Emax for each of the entries shown.
# Target: recombinant human PKM2 (Homo sapiens, UniProt P14618)
# Construct: His (N); purchased R&D Systems
# Measurement protocol: Human PKM2 activation assay (Kinase-Glo Plus luminescent detection of generated ATP)
# Assay type: biochemical
# Condition description: percentage activation normalised to DMSO vehicle (LOW) and 5 μM TEPP-46 (HIGH); read-out: hPKM2 Emax
Quick reminder: number only, in %, skip the unit.

Would you mind telling me what Emax value was observed for COc1ccc(S(=O)(=O)c2ccc3c(=O)n(Cc4cc[nH]n4)ncc3c2)cc1 [Example 6] ?
109

Would you mind telling me what Emax value was observed for O=c1c2ccc(S(=O)(=O)c3ccccc3)cc2cnn1Cc1n[nH]cc1CO [Example 26] ?
106

Would you mind telling me what Emax value was observed for COc1ccc(Cn2ncc3cc(S(=O)(=O)c4ccc(C)cn4)ccc3c2=O)cn1 [Example 115] ?
69.8

Would you mind telling me what Emax value was observed for COc1ccc(F)c(Cn2ncc3cc(S(=O)(=O)c4ccn(C)n4)ccc3c2=O)c1 [Example 199] ?
91.4

###

# Target: recombinant human PKM2 (Homo sapiens, UniProt P14618)
# Construct: His (N); purchased R&D Systems
# Measurement protocol: Human PKM2 activation assay (Kinase-Glo Plus luminescent detection of generated ATP)
# Assay type: biochemical
# Condition description: percentage activation normalised to DMSO vehicle (LOW) and 5 μM TEPP-46 (HIGH); read-out: hPKM2 Emax
Endpoint label: Emax (%)
Quick reminder: number only, in %, skip the unit.

Would you mind telling me what Emax value was observed for Cn1ccc(Cn2ncc3cc(S(=O)(=O)c4ccc(OC(F)F)cc4)ccc3c2=O)n1 ?
108

Would you mind telling me what Emax value was observed for COc1ccc(Cn2ncc3cc(S(=N)(=O)c4ccc5c(c4)CCO5)ccc3c2=O)cn1 (racemic) ?
68.3

Would you mind telling me what Emax value was observed for Cn1cc(S(=O)(=O)c2ccc3c(=O)n(Cc4ccc5occc5n4)ncc3c2)cn1 ?
108

Would you mind telling me what Emax value was observed for O=c1c2ccc(S(=O)(=O)c3ccccc3)cc2cnn1Cc1ccc2c(c1)OCCO2 ?
85

Would you mind telling me what Emax value was observed for COc1ccc(Cn2ncc3cc(S(=O)(=O)c4ccc5c(c4)OC(F)(F)O5)ccc3c2=O)cn1 ?
88.7

Would you mind telling me what Emax value was observed for COc1ccc(S(=O)(=O)c2ccc3c(=O)n(Cc4cccc(N)c4)ncc3c2)cc1 ?
112

Would you mind telling me what Emax value was observed for O=c1c2ccc(S(=O)(=O)c3ccc4c(c3)CCO4)cc2cnn1Cc1cc[nH]n1 ?
114

Would you mind telling me what Emax value was observed for O=c1c2ccc(S(=O)(=O)c3cnn(CCO)c3)cc2cnn1Cc1ccn(C2CC2)n1 ?
91.3

###

# Target: recombinant human PKM2 (Homo sapiens, UniProt P14618)
# Construct: His (N); purchased R&D Systems
# Measurement protocol: Human PKM2 activation assay (Kinase-Glo Plus luminescent detection of generated ATP)
# Type: biochemical
# Condition description: percentage activation normalised to DMSO vehicle (LOW) and 5 μM TEPP-46 (HIGH); read-out: hPKM2 Emax
Kindly state Emax for each of the entries shown.
Quick reminder: number only, in %, skip the unit.

Param readout= Emax; system= recombinant human PKM2 (Homo sapiens, UniProt P14618); entry= Cn1ccc(Cn2ncc3cc(S(=N)(=O)c4ccccc4)ccc3c2=O)n1 (centres unmarked) ; returns value.
110

Param readout= Emax; system= recombinant human PKM2 (Homo sapiens, UniProt P14618); entry= Cn1cc(S(=O)(=O)c2ccc3c(=O)n(Cc4cccc(C5(O)COC5)n4)ncc3c2)cn1 ; returns value.
78.6

Param readout= Emax; system= recombinant human PKM2 (Homo sapiens, UniProt P14618); entry= Cn1ccc(S(=O)(=O)c2ccc3c(=O)n(Cc4ccc5occc5n4)ncc3c2)n1 ; returns value.
106

Param readout= Emax; system= recombinant human PKM2 (Homo sapiens, UniProt P14618); entry= COc1ccc(Cn2ncc3cc(S(=O)(=O)c4ccn5ccnc5c4)ccc3c2=O)cn1 ; returns value.
59.6

Param readout= Emax; system= recombinant human PKM2 (Homo sapiens, UniProt P14618); entry= Nc1cccc(Cn2ncc3cc(S(=O)(=O)c4ccc5c(c4)OCO5)ccc3c2=O)c1 ; returns value.
95.2

Param readout= Emax; system= recombinant human PKM2 (Homo sapiens, UniProt P14618); entry= O=c1c2ccc(S(=O)(=O)c3cc[nH]n3)cc2cnn1Cc1ccn(C2CC2)n1 ; returns value.
110

Param readout= Emax; system= recombinant human PKM2 (Homo sapiens, UniProt P14618); entry= COc1ccc(Cn2ncc3cc(S(=O)(=O)c4cnn(CCO)c4)ccc3c2=O)cn1 ; returns value.
81.3

Param readout= Emax; system= recombinant human PKM2 (Homo sapiens, UniProt P14618); entry= COc1ccc(Cn2ncc3cc(S(=O)(=O)c4cn[nH]c4)ccc3c2=O)nc1C ; returns value.
82.8

###

Kindly state pEC50 for each of the entries shown.
# Target: recombinant human PKM2 (Homo sapiens, UniProt P14618)
# Construct: His (N); purchased R&D Systems
# Measurement protocol: Human PKM2 activation assay (Kinase-Glo Plus luminescent detection of generated ATP)
# Type: biochemical
# Condition description: recombinant human PKM2 activation; 4-parameter logistic fit; read-out: hPKM2 EC50
Please keep in mind that pEC50 is minus log10 of the molar concentration; only the number is needed.

Param readout= pEC50; system= recombinant human PKM2 (Homo sapiens, UniProt P14618); entry= NC(=O)c1ccc(Cn2ncc3cc(S(=O)(=O)c4ccccc4)ccc3c2=O)o1 ; returns value.
6.12

Param readout= pEC50; system= recombinant human PKM2 (Homo sapiens, UniProt P14618); entry= O=c1c2ccc(S(=O)(=O)c3ccccc3)cc2cnn1Cc1cncc(O)c1 ; returns value.
6.75

Param readout= pEC50; system= recombinant human PKM2 (Homo sapiens, UniProt P14618); entry= Cn1cc(S(=O)(=O)c2ccc3c(=O)n(Cc4ccn(C5CC5)n4)ncc3c2)cn1 ; returns value.
6.92

Param readout= pEC50; system= recombinant human PKM2 (Homo sapiens, UniProt P14618); entry= Cc1c(Cn2ncc3cc(S(=O)(=O)c4cnn(C)c4)ccc3c2=O)nn2c1OCC2 ; returns value.
7.40

Param readout= pEC50; system= recombinant human PKM2 (Homo sapiens, UniProt P14618); entry= NC(=O)c1cccc(Cn2ncc3cc(S(=O)(=O)c4ccccc4)ccc3c2=O)c1 ; returns value.
6.94

Param readout= pEC50; system= recombinant human PKM2 (Homo sapiens, UniProt P14618); entry= O=c1c2cc(NCCO)c(S(=O)(=O)c3ccccc3)cc2cnn1Cc1cccnc1O ; returns value.
6.58

Param readout= pEC50; system= recombinant human PKM2 (Homo sapiens, UniProt P14618); entry= Cc1cccc(Cn2ncc3cc(S(=O)(=O)c4csc([C@@H](C)O)n4)ccc3c2=O)n1 (single isomer, unassigned) ; returns value.
6.95

Param readout= pEC50; system= recombinant human PKM2 (Homo sapiens, UniProt P14618); entry= C[C@H]1Cc2cc(S(=O)(=O)c3ccc4c(=O)n(Cc5ccn(C)n5)ncc4c3)ccc2O1 ; returns value.
7.35

Param readout= pEC50; system= recombinant human PKM2 (Homo sapiens, UniProt P14618); entry= Cc1cccc(Cn2ncc3cc(S(=O)(=O)c4cnn(C5CNC5)c4)ccc3c2=O)n1 ; returns value.
6.29

Param readout= pEC50; system= recombinant human PKM2 (Homo sapiens, UniProt P14618); entry= O=c1c2ccc(S(=O)(=O)c3ccccc3)cc2cnn1Cc1cccc2nccn12 ; returns value.
6.30

Param readout= pEC50; system= recombinant human PKM2 (Homo sapiens, UniProt P14618); entry= COc1ccc(Cn2ncc3cc([S@](=N)(=O)c4ccccc4)ccc3c2=O)cn1 (single isomer, unassigned) ; returns value.
6.54

Param readout= pEC50; system= recombinant human PKM2 (Homo sapiens, UniProt P14618); entry= COc1ccc(Cn2ncc3cc(S(=O)(=O)c4ccc(OC(F)F)cc4)ccc3c2=O)cn1 ; returns value.
7.80

Param readout= pEC50; system= recombinant human PKM2 (Homo sapiens, UniProt P14618); entry= O=c1c2ccc(S(=O)(=O)c3ccccc3)c(NCCO)c2cnn1Cc1cccnc1O ; returns value.
6.60

Param readout= pEC50; system= recombinant human PKM2 (Homo sapiens, UniProt P14618); entry= COc1ccc(Cn2ncc3cc(S(=O)(=O)c4ccsc4C(N)=O)ccc3c2=O)cn1 ; returns value.
6.75

Param readout= pEC50; system= recombinant human PKM2 (Homo sapiens, UniProt P14618); entry= COc1ccc(Cn2ncc3cc(S(=O)(=O)c4cccc(C(N)=O)c4)ccc3c2=O)cn1 ; returns value.
6.68

Param readout= pEC50; system= recombinant human PKM2 (Homo sapiens, UniProt P14618); entry= O=c1c2ccc(S(=O)(=O)c3ccc4c(c3)NCCO4)cc2cnn1Cc1ccn(CCO)n1 ; returns value.
7.04

Param readout= pEC50; system= recombinant human PKM2 (Homo sapiens, UniProt P14618); entry= COc1ccc(Cn2ncc3cc(S(=O)(=O)c4ccc5c(c4)OC(F)(F)O5)ccc3c2=O)cn1 ; returns value.
7.04

Param readout= pEC50; system= recombinant human PKM2 (Homo sapiens, UniProt P14618); entry= COc1ccc(Cn2ncc3cc(OC4(c5ccccc5)COC4)ncc3c2=O)cn1 ; returns value.
6.34

Param readout= pEC50; system= recombinant human PKM2 (Homo sapiens, UniProt P14618); entry= Cn1ccc(Cn2ncc3cc(S(=O)(=O)c4ccc(OC(F)(F)F)cc4)ccc3c2=O)n1 ; returns value.
6.72

Param readout= pEC50; system= recombinant human PKM2 (Homo sapiens, UniProt P14618); entry= O=c1c2ccc(S(=O)(=O)c3ccc4sccc4c3)cc2cnn1Cc1cc[nH]n1 ; returns value.
7.45

Param readout= pEC50; system= recombinant human PKM2 (Homo sapiens, UniProt P14618); entry= Cc1cccc(Cn2ncc3cc(S(=O)(=O)c4n[nH]cc4F)ccc3c2=O)n1 ; returns value.
6.70

Param readout= pEC50; system= recombinant human PKM2 (Homo sapiens, UniProt P14618); entry= COc1cccc(S(=O)(=O)c2ccc3c(=O)n(Cc4cc[nH]n4)ncc3c2)n1 ; returns value.
6.61

Param readout= pEC50; system= recombinant human PKM2 (Homo sapiens, UniProt P14618); entry= Cn1ccc(Cn2ncc3cc(S(=O)(=O)c4ccccc4)cnc3c2=O)n1 ; returns value.
6.40

Param readout= pEC50; system= recombinant human PKM2 (Homo sapiens, UniProt P14618); entry= O=c1c2ccc(S(=O)(=O)c3cnn(C4CC4)c3)cc2cnn1Cc1ccn(C2CC2)n1 ; returns value.
7.32

Param readout= pEC50; system= recombinant human PKM2 (Homo sapiens, UniProt P14618); entry= CC(O)c1nc(S(=O)(=O)c2ccc3c(=O)n(Cc4ccc5c(n4)CCO5)ncc3c2)cs1 (stereo not drawn) ; returns value.
7.43

Param readout= pEC50; system= recombinant human PKM2 (Homo sapiens, UniProt P14618); entry= COc1ccc(S(=O)(=O)c2ccc3c(=O)n(Cc4ccn(CCO)n4)ncc3c2)nc1 ; returns value.
6.55

Param readout= pEC50; system= recombinant human PKM2 (Homo sapiens, UniProt P14618); entry= COc1ccc(S(=O)(=O)c2ccc3c(=O)n(Cc4cccc5c4CCN5)ncc3c2)cc1 ; returns value.
7.18

Param readout= pEC50; system= recombinant human PKM2 (Homo sapiens, UniProt P14618); entry= COc1ccc(S(=O)(=O)c2ccc3c(=O)n(Cc4ccno4)ncc3c2)cc1 ; returns value.
6.36

Param readout= pEC50; system= recombinant human PKM2 (Homo sapiens, UniProt P14618); entry= Cc1cc2cc(S(=O)(=O)c3ccc4c(=O)n(Cc5cc[nH]n5)ncc4c3)ccc2o1 ; returns value.
7.36

Param readout= pEC50; system= recombinant human PKM2 (Homo sapiens, UniProt P14618); entry= COc1ccc(S(=O)(=O)c2ccc3c(=O)n(Cc4cccc(N)c4)ncc3c2)cn1 ; returns value.
7.26

Param readout= pEC50; system= recombinant human PKM2 (Homo sapiens, UniProt P14618); entry= Cc1cccc(Cn2ncc3cc(S(=O)(=O)c4csc(C(C)O)n4)ccc3c2=O)n1 (stereo not drawn) ; returns value.
6.81

Param readout= pEC50; system= recombinant human PKM2 (Homo sapiens, UniProt P14618); entry= Cc1cccc(S(=O)(=O)c2ccc3c(=O)n(Cc4cc[nH]n4)ncc3c2)n1 ; returns value.
6.73

Param readout= pEC50; system= recombinant human PKM2 (Homo sapiens, UniProt P14618); entry= Nc1cccc(Cn2ncc3cc([S+]([O-])c4ccccc4)ccc3c2=O)c1 (stereo not drawn) ; returns value.
6.46
